Source of measurements: BindingDB's records for doi:10.1016/j.bmc.2007.07.054

Target: Cytosolic phospholipase A2 (Homo sapiens, UniProt P47712)
Sequence (P47712 whole entry): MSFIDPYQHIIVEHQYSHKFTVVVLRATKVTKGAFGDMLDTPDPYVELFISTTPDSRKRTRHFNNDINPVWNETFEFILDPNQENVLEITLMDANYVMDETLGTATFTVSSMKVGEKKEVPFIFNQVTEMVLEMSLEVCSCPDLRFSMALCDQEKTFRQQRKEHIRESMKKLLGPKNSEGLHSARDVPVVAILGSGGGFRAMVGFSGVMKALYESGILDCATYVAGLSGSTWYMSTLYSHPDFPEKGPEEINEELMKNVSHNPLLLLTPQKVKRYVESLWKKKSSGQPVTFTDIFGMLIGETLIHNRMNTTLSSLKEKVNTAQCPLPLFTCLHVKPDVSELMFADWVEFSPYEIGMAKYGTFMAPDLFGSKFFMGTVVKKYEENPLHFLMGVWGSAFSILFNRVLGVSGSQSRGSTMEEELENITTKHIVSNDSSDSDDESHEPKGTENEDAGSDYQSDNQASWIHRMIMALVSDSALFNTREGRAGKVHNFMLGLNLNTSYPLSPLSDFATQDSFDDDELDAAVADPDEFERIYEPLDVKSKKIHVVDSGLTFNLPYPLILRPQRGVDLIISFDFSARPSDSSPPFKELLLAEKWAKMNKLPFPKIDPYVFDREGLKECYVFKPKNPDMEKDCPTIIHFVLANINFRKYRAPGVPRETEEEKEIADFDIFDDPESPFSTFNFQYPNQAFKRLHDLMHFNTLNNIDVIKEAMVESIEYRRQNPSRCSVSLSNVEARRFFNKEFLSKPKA
Assay: Inhibition of human cloned cPLA2 expressed in HEK293 cells
pIC50: −log10 of the molar value.
observable: pIC50

State its pIC50 on Cytosolic phospholipase A2 (Homo sapiens, UniProt P47712): O=c1cc(O)cc2oc(-c3ccc(Oc4cc(-c5cc(O)c6c(=O)cc(O)cc-6o5)ccc4O)cc3)cc(O)c1-2
< 4.00

Next compound: O=c1cc(O)cc2oc(-c3ccc(O)c(-c4c(O)cc(O)c5c(=O)cc(-c6ccc(O)cc6)oc45)c3)cc(O)c1-2
< 4.00

---

Target: Group 10 secretory phospholipase A2 (Homo sapiens, UniProt O15496)
Sequence (O15496 whole entry): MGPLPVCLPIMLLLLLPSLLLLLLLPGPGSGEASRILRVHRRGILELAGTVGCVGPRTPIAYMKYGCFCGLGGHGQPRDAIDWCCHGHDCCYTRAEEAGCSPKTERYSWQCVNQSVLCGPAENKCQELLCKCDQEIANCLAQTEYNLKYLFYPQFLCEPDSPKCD
Assay: Inhibition of human cloned sPLA2-10 expressed in HEK293 cells
Answer each item with its documented IC50.

I would be grateful if you could share the reported IC50 for O=c1cc(O)cc2oc(-c3ccc(O)c(-c4c(O)cc(O)c5c(=O)cc(-c6ccc(O)cc6)oc45)c3)cc(O)c1-2 .
> 100 µM

Next compound: O=c1cc(O)cc2oc(-c3ccc(Oc4cc(-c5cc(O)c6c(=O)cc(O)cc-6o5)ccc4O)cc3)cc(O)c1-2
> 100 µM
